target under test: Human PDE7 (Homo sapiens)
Construct: Human PDE7 was partially purified from the cell line HUT-78; endogenous in cells
Sequence (Q13946 whole entry): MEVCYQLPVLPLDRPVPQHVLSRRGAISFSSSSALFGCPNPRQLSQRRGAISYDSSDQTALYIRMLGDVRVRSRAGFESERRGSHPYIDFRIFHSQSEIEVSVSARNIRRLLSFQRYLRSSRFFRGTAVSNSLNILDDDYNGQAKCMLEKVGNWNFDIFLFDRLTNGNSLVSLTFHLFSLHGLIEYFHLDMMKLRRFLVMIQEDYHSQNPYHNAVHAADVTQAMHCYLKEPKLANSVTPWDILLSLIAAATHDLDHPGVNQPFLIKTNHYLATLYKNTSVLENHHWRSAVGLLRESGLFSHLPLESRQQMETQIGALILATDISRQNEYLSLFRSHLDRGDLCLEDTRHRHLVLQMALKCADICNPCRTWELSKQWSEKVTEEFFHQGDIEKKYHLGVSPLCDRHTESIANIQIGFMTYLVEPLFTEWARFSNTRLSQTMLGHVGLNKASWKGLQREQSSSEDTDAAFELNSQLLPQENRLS
protocol notes: PDE7 enzymatic test ([3H]-cAMP hydrolysis, TLC on PEI cellulose)
conditions: human PDE7 partially purified from HUT-78; cAMP concentration about 4 times the Km; 10 μM rolipram present
quantity kind: IC50 (nM)

1) COc1ccc(Cn2c(=O)c3cc(OCC#N)ccc3n(C3CCOCC3)c2=O)cn1 | 16
2) COc1ccc(Cn2c(=O)c3cc(OCC#N)ccc3n(C3CCOCC3)c2=O)cc1OC | 8.9
3) COc1ccc(Cn2c(=O)c3cc(CF)ccc3n(C3CCOCC3)c2=O)cc1OC | 12
4) COc1ccc(Cn2c(=O)c3cc(OCC#N)ccc3n(C3CCS(=O)(=O)CC3)c2=O)cc1OC | 230
